system: XIP peptide (Xip251-270) binding; experiment: small-molecule binders of XIP peptide, primary screen, biochemical, small-molecule microarray, fluorescence 635/667 nm, 0.1 µg/mL protein (AID 1182); conditions: fluorescent protein binding, 635 nm, higher = more signal, called active from +8 up or from −8 down
Respond with label 1 for composite z-score values of 0.5 and above, label 0 for values below.

[[record]]
compound = "C=CCNC(=O)[C@H]1[C@@H]2C(=O)O[C@@H](c3ccccc3)[C@@H](c3ccccc3)N2[C@@H](c2ccc(OCCO)cc2)[C@]12C(=O)N(C(=O)OCCOC)c1ccccc12"
class_label = "label 1"

[[record]]
compound = "CC(C)(C)OC(=O)CC[C@@]1(C(=O)NCC(O)CO)N=C(c2ccc(OCCCO)cc2)O[C@@H]1c1ccccc1N=[N+]=[N-] (stereo partly specified)"
class_label = "label 1"

[[record]]
compound = "C=C(COC)/C(=C/C[C@H](OC(=O)c1ccncc1)c1ccc(OCCO)cc1)c1cnc2ccccc2c1"
class_label = "label 1"

[[record]]
compound = "C=CCOC(=O)[C@H]1[C@@H]2C(=O)O[C@@H](c3ccccc3)[C@@H](c3ccccc3)N2[C@@H](c2ccc(OCCOC(=O)[C@@H]3C[C@@H]4C(=O)N5CCC[C@H]5C(=O)N4[C@@H]3c3cccc(OCCO)c3)cc2)[C@]12C(=O)Nc1ccccc12"
class_label = "label 1"

[[record]]
compound = "COC(=O)[C@@]1(Cc2ccc(OC)cc2)[C@H]2c3cc(C(=O)N4CCCC4)n(Cc4ccsc4Br)c3C[C@H]2CN1C(=O)c1ccccc1"
class_label = "label 0"

[[record]]
compound = "COc1cc2c(cc1OC)CN(C(=O)[C@@H]1[C@H]3C(=O)O[C@H](c4ccccc4)[C@H](c4ccccc4)N3[C@H](c3ccc(O)cc3)[C@@]13C(=O)Nc1ccc(C#CC4(O)CCCCCC4)cc13)CC2"
class_label = "label 0"

